# credit: patent US20160237059A1

# targetDesc: human CCR2 (Homo sapiens, UniProt P41597)
# Sequence (P41597 1-360 isoform P41597-2): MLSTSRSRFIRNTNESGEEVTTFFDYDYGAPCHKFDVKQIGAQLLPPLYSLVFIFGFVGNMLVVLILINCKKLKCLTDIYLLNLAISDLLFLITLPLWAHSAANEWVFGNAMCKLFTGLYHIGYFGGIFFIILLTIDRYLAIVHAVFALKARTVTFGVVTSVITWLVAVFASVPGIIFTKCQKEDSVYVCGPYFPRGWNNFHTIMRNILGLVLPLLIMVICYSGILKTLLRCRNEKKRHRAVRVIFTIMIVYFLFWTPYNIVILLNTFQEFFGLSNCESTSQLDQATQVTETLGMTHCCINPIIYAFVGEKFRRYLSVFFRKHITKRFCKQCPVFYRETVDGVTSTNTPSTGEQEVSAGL
# protocol: Functional Ca2+ release test (B-1)
# recordedConditions: Chem-1 cell line transfected with human CCR2; 50% inhibition of the MCP-1 effect, MCP-1 at EC50 (about 5 nM); in some cases means of several determinations
pIC50: −log10 of the molar value.

{"compound": "O=c1[nH]c(-c2n[nH]cc2Cl)nc(C(F)(F)F)c1Cc1ccc(Cl)c(Cl)c1 [Example 75]", "targetDesc": "human CCR2 (Homo sapiens, UniProt P41597)", "pIC50": 8.89}
{"compound": "COc1csnc1-c1nc(C(F)(F)F)c(Oc2ccc(Cl)c(Cl)c2)c(=O)[nH]1 [Example 237]", "targetDesc": "human CCR2 (Homo sapiens, UniProt P41597)", "pIC50": 9.00}
{"compound": "CC(=O)Nc1ccc(-c2nc(C(F)(F)F)c(Oc3ccc(Cl)c(Cl)c3)c(=O)[nH]2)nc1 [Example 202]", "targetDesc": "human CCR2 (Homo sapiens, UniProt P41597)", "pIC50": 9.05}
